Assay: Lipophilicity, logD of the compound in 1-octanol and phosphate buffer at pH 7.4 incubated for 3 hrs by shake flask method based LC/MS/MS analysis
Type: physicochemical
Settings: 1-octanol/phosphate buffer, pH 7.4
PARAMETER_MEASURED: logD at 3 h

COMPOUND | RESULT_QUALIFIER | RESULT
COc1cc(F)c(O[C@H]2CC[C@@H](C(=O)O)CC2)cc1C(=O)N[C@@H]1[C@H](C(=O)Nc2ccc(F)c(C(F)(F)F)c2)[C@H]2C=C[C@@H]1C2 | = | 3.6
COc1cc(F)c(O[C@H]2CC[C@@](C)(C(=O)O)CC2)cc1C(=O)N[C@@H]1C[C@@H](OC)C[C@@H]1C(=O)Nc1cccc(S(=O)(=O)C(F)(F)F)c1 | = | 3
COc1cc(F)c(O[C@H]2CC[C@@](C)(C(=O)O)CC2)cc1C(=O)N[C@@H]1CCC[C@@H]1C(=O)Nc1ccc(F)c(S(F)(F)(F)(F)F)c1 | = | 4.35
COc1cc(F)c(O[C@H]2CC[C@@](C)(C(=O)O)CC2)cc1C(=O)N[C@@H]1COC[C@@H]1C(=O)Nc1cccc(S(=O)(=O)C(F)(F)F)c1 | = | 2.6
COc1cnc(-c2ccc(C(=O)O)cc2)cc1C(=O)N[C@H]1[C@@H](C(=O)Nc2cccc(S(=O)(=O)C(F)(F)F)c2)[C@@H]2C=C[C@H]1C2 (racemic) | = | 2.3
COc1cc(F)c(O[C@H]2CC[C@@H](C(=O)O)CC2)cc1C(=O)N[C@@H]1[C@H]2CC[C@H](C2)[C@@H]1C(=O)Nc1ccccc1 | = | 2.5
COc1ccccc1C(=O)Nc1ccccc1C(=O)Nc1cccc(S(=O)(=O)C(F)(F)F)c1 | > | 4
COc1cc(F)c(-c2cccc(C(=O)O)c2)cc1C(=O)N[C@H]1[C@@H](C(=O)Nc2cccc(S(=O)(=O)C(F)(F)F)c2)[C@@H]2C=C[C@H]1C2 | = | 3.7
COc1cc(F)ccc1C(=O)N[C@@H]1[C@H](C(=O)Nc2cccc(S(=O)(=O)C(F)(F)F)c2)[C@H]2C=C[C@@H]1C2 (racemic) | > | 3
COc1cc(F)c(F)cc1C(=O)N[C@@H]1[C@H](C(=O)Nc2cccc(S(=O)(=O)C(F)(F)F)c2)[C@H]2C=C[C@@H]1C2 (racemic) | > | 4.2
COc1cc(F)c(-c2ccc(S(N)(=O)=O)cc2)cc1C(=O)N[C@@H]1[C@H]2CC[C@H](C2)[C@@H]1C(=O)Nc1cccc(S(=O)(=O)C(F)(F)F)c1 | > | 3.7
COc1cc(F)c(-c2ccc(C(=O)O)cc2)cc1C(=O)N[C@@H]1[C@H](C(=O)Nc2cccc(S(=O)(=O)C(F)(F)F)c2)[C@H]2C=C[C@@H]1C2 | = | 3.8
